TEST TARGET: CYP2C9 (Homo sapiens)
Construct: tissue iPhase Pharmaceutical Services (Beijing, China) Lot # 7MMC011; host or cells: pooled human liver microsomes
Sequence (P11712 whole entry): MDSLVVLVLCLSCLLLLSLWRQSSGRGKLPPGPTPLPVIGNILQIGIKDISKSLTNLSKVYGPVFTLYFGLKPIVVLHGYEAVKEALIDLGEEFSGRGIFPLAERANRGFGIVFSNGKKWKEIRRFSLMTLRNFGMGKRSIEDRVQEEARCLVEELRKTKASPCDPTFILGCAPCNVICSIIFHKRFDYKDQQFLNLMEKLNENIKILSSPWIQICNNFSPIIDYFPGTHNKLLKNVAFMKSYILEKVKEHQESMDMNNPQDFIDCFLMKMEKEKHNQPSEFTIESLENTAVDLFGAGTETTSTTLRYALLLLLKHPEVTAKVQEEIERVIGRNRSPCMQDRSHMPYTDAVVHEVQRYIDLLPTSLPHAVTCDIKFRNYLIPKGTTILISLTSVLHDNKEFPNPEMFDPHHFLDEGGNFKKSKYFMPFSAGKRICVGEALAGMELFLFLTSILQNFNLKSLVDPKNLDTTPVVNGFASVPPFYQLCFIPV
PROTOCOL TEXT: Inhibition of CYP activities by GA in HLMs (tolbutamide)
Format: biochemical
ASSAY CONDITIONS: human, human liver microsomes, probe tolbutamide 25 µM; read-out: Relative activity (%)
MEASURED ATTRIBUTE: activity at 30 min, […]

QUERY: Respond only with activity at 30 min, […] recorded for `CC1(C)[C@@H](O)CC[C@]2(C)[C@H]3C(=O)C=C4[C@@H]5C[C@@](C)(C(=O)O)CC[C@]5(C)CC[C@@]4(C)[C@]3(C)CC[C@@H]12`
RESULT: 35.9%

Ref: paper PMC5126668
